Measured viability, T/C of individual entries
# System: 377384-186-R-J1-PDC complex spheroid viability
# test_details: Anticancer human tumor 377384-186-R-J1-PDC patient-derived pancreatic carcinoma cell line growth inhibition [CLK]
# stated_conditions: second compound 10 µM; first compound 0.1 µM; stronger effect = lower value
metric: viability, T/C (%)

compound="Cn1ncnc1[C@H]1c2n[nH]c(=O)c3cc(F)cc(c23)N[C@@H]1c1ccc(F)cc1 + CNC(=O)c1ccc(Nc2nc(OC3CCCC3)c3c(-c4ccc5nc(C)oc5c4)c[nH]c3n2)c(OC)c1" units_of_measure=% numeric_result=14.8
compound="C=CC(=O)N1CCN(c2nc(=O)n(-c3c(C)ccnc3C(C)C)c3nc(-c4c(O)cccc4F)c(F)cc23)C(C)C1 (stereo not given) + CNC(=O)c1ccc(Nc2nc(OC3CCCC3)c3c(-c4ccc5nc(C)oc5c4)c[nH]c3n2)c(OC)c1" units_of_measure=% numeric_result=18.3
compound="Nc1ccn(C2OC(CO)C(O)C2(F)F)c(=O)n1 (stereo not given) + CNC(=O)c1ccc(Nc2nc(OC3CCCC3)c3c(-c4ccc5nc(C)oc5c4)c[nH]c3n2)c(OC)c1" units_of_measure=% numeric_result=7.84
compound="CCCS(=O)(=O)Nc1ccc(F)c(C(=O)c2c[nH]c3ncc(-c4ccc(Cl)cc4)cc23)c1F + CNC(=O)c1ccc(Nc2nc(OC3CCCC3)c3c(-c4ccc5nc(C)oc5c4)c[nH]c3n2)c(OC)c1" units_of_measure=% numeric_result=23.3
compound="CC(=O)O[C@H]1C(=O)[C@@]2(C)[C@H]([C@H](OC(=O)c3ccccc3)[C@]3(O)C[C@H](OC(=O)[C@H](O)[C@@H](NC(=O)c4ccccc4)c4ccccc4)C(C)=C1C3(C)C)[C@]1(OC(C)=O)CO[C@@H]1C[C@@H]2O + CNC(=O)c1ccc(Nc2nc(OC3CCCC3)c3c(-c4ccc5nc(C)oc5c4)c[nH]c3n2)c(OC)c1" units_of_measure=% numeric_result=22.3
compound="Nc1ccccc1NC(=O)c1ccc(CNC(=O)OCc2cccnc2)cc1 + CNC(=O)c1ccc(Nc2nc(OC3CCCC3)c3c(-c4ccc5nc(C)oc5c4)c[nH]c3n2)c(OC)c1" units_of_measure=% numeric_result=22.9
compound="COc1c(OCCCN2CCOCC2)ccc2c3n(c(=NC(=O)c4cnc(N)nc4)nc12)CCN3 + CN1CCN(c2cc(C(=O)Nc3cc4cc(-c5cnn(C)c5)ccc4cn3)ccn2)CC1" units_of_measure=% numeric_result=0.32
compound="O=c1[nH]cc(F)c(=O)[nH]1 + CNC(=O)c1ccc(Nc2nc(OC3CCCC3)c3c(-c4ccc5nc(C)oc5c4)c[nH]c3n2)c(OC)c1" units_of_measure=% numeric_result=17.2
compound="COc1c(OCCCN2CCOCC2)ccc2c3n(c(=NC(=O)c4cnc(N)nc4)nc12)CCN3 + CNC(=O)c1ccc(Nc2nc(OC3CCCC3)c3c(-c4ccc5nc(C)oc5c4)c[nH]c3n2)c(OC)c1" units_of_measure=% numeric_result=11.6
compound="C#Cc1c(F)ccc2cc(O)cc(-c3ncc4c(N5CC6CCC(C5)N6)nc(OCC56CCCN5CC(F)C6)nc4c3F)c12 (stereo not given) + CNC(=O)c1ccc(Nc2nc(OC3CCCC3)c3c(-c4ccc5nc(C)oc5c4)c[nH]c3n2)c(OC)c1" units_of_measure=% numeric_result=2.7

* * *

# System: 377384-186-R-J1-PDC complex spheroid viability
# test_details: Anticancer human tumor 377384-186-R-J1-PDC cell line growth inhibition [CLK]; active = viability on the fitted dose curve at most 10% of control; inactive = the rest;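 further: luminescence signal used as a stand-in for viable cells; spheroids exposed to agents for 7 days before reading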
# stated_conditions: second compound 1 µM; first compound 0.000949 µM
Outcomes: Yes (active), No (inactive)

molecule="C=CC(=O)Nc1cc(Nc2nccc(-c3cn(C)c4ccccc34)n2)c(OC)cc1N(C)CCN(C)C + CN1CCN(c2cc(C(=O)Nc3cc4cc(-c5cnn(C)c5)ccc4cn3)ccn2)CC1" label=Yes
molecule="CC(C)CC(NC(=O)C(Cc1ccccc1)NC(=O)c1cnccn1)B(O)O (centres undefined) + CNC(=O)c1ccc(Nc2nc(OC3CCCC3)c3c(-c4ccc5nc(C)oc5c4)c[nH]c3n2)c(OC)c1" label=No
molecule="C=CC(=O)Nc1cc(Nc2nccc(-c3cn(C)c4ccccc34)n2)c(OC)cc1N(C)CCN(C)C + CNC(=O)c1ccc(Nc2nc(OC3CCCC3)c3c(-c4ccc5nc(C)oc5c4)c[nH]c3n2)c(OC)c1" label=No
molecule="CC(C)CC(NC(=O)C(Cc1ccccc1)NC(=O)c1cnccn1)B(O)O (centres undefined) + CN1CCN(c2cc(C(=O)Nc3cc4cc(-c5cnn(C)c5)ccc4cn3)ccn2)CC1" label=Yes

* * *

As shown below, each of these molecules has a reported viability, T/C value.
# Tested on: 377384-186-R-J1-PDC complex spheroid viability
# test_details: Anticancer human tumor 377384-186-R-J1-PDC cell line growth inhibition [CLK];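 further: luminescence signal used as a stand-in for viable cells; spheroids exposed to agents for 7 days before reading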
# stated_conditions: second compound 0.1 µM; first compound 0.1 µM; stronger effect = lower value
metric: viability, T/C (%)

molecule="O=c1[nH]cc(F)c(=O)[nH]1 + CN1CCN(c2cc(C(=O)Nc3cc4cc(-c5cnn(C)c5)ccc4cn3)ccn2)CC1" numeric_result=107
molecule="CC(=O)O[C@H]1C(=O)[C@@]2(C)[C@H]([C@H](OC(=O)c3ccccc3)[C@]3(O)C[C@H](OC(=O)[C@H](O)[C@@H](NC(=O)c4ccccc4)c4ccccc4)C(C)=C1C3(C)C)[C@]1(OC(C)=O)CO[C@@H]1C[C@@H]2O + CN1CCN(c2cc(C(=O)Nc3cc4cc(-c5cnn(C)c5)ccc4cn3)ccn2)CC1" numeric_result=9.15
molecule="CCCS(=O)(=O)Nc1ccc(F)c(C(=O)c2c[nH]c3ncc(-c4ccc(Cl)cc4)cc23)c1F + CN1CCN(c2cc(C(=O)Nc3cc4cc(-c5cnn(C)c5)ccc4cn3)ccn2)CC1" numeric_result=78.5
molecule="Nc1ccccc1NC(=O)c1ccc(CNC(=O)OCc2cccnc2)cc1 + CNC(=O)c1ccc(Nc2nc(OC3CCCC3)c3c(-c4ccc5nc(C)oc5c4)c[nH]c3n2)c(OC)c1" numeric_result=57.2
molecule="C=C(F)C(=O)N1CCN(c2nc(OCC3CCCN3C)nc3c2CCN(c2cccc4cccc(Cl)c24)C3)CC1CC#N (stereo not given) + CNC(=O)c1ccc(Nc2nc(OC3CCCC3)c3c(-c4ccc5nc(C)oc5c4)c[nH]c3n2)c(OC)c1" numeric_result=50.9

* * *

# System: 377384-186-R-J1-PDC complex spheroid viability
# test_details: Anticancer human tumor 377384-186-R-J1-PDC cell line growth inhibition [CLK];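 further: luminescence signal used as a stand-in for viable cells; spheroids exposed to agents for 7 days before reading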
# stated_conditions: second compound 10 µM; first compound 3.16 µM; stronger effect = lower value
metric: viability, T/C (%)

compound="O=c1[nH]cc(F)c(=O)[nH]1 + CNC(=O)c1ccc(Nc2nc(OC3CCCC3)c3c(-c4ccc5nc(C)oc5c4)c[nH]c3n2)c(OC)c1" units_of_measure=% numeric_result=10.8
compound="C#Cc1c(F)ccc2cc(O)cc(-c3ncc4c(N5CC6CCC(C5)N6)nc(OCC56CCCN5CC(F)C6)nc4c3F)c12 (stereo not given) + CN1CCN(c2cc(C(=O)Nc3cc4cc(-c5cnn(C)c5)ccc4cn3)ccn2)CC1" units_of_measure=% numeric_result=0.22
compound="CC(=O)O[C@H]1C(=O)[C@@]2(C)[C@H]([C@H](OC(=O)c3ccccc3)[C@]3(O)C[C@H](OC(=O)[C@H](O)[C@@H](NC(=O)c4ccccc4)c4ccccc4)C(C)=C1C3(C)C)[C@]1(OC(C)=O)CO[C@@H]1C[C@@H]2O + CN1CCN(c2cc(C(=O)Nc3cc4cc(-c5cnn(C)c5)ccc4cn3)ccn2)CC1" units_of_measure=% numeric_result=0.4
compound="COc1ccc([C@@H](O)c2cc(-c3ncnc4cc(N5CCOCC5)ccc34)c(F)cc2Cl)nn1 + CNC(=O)c1ccc(Nc2nc(OC3CCCC3)c3c(-c4ccc5nc(C)oc5c4)c[nH]c3n2)c(OC)c1" units_of_measure=% numeric_result=17.3
compound="C#Cc1c(F)ccc2cc(O)cc(-c3ncc4c(N5CC6CCC(C5)N6)nc(OCC56CCCN5CC(F)C6)nc4c3F)c12 (stereo not given) + CNC(=O)c1ccc(Nc2nc(OC3CCCC3)c3c(-c4ccc5nc(C)oc5c4)c[nH]c3n2)c(OC)c1" units_of_measure=% numeric_result=1.6

* * *

# Tested on: 377384-186-R-J1-PDC complex spheroid viability
# test_details: Anticancer human tumor 377384-186-R-J1-PDC cell line growth inhibition [CLK]; active means viability on the fitted dose curve at most 10% of control; inactive means the rest;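 further: luminescence signal used as a stand-in for viable cells; spheroids exposed to agents for 7 days before reading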
# stated_conditions: second compound 0.0316 µM; first compound 10 µM
Outcomes: TRUE for active, FALSE for inactive

compound="Nc1ccccc1NC(=O)c1ccc(CNC(=O)OCc2cccnc2)cc1 + CNC(=O)c1ccc(Nc2nc(OC3CCCC3)c3c(-c4ccc5nc(C)oc5c4)c[nH]c3n2)c(OC)c1" label=TRUE
compound="C=CC(=O)N1CCN(c2nc(=O)n(-c3c(C)ccnc3C(C)C)c3nc(-c4c(O)cccc4F)c(F)cc23)C(C)C1 (configuration not stated) + CNC(=O)c1ccc(Nc2nc(OC3CCCC3)c3c(-c4ccc5nc(C)oc5c4)c[nH]c3n2)c(OC)c1" label=FALSE
compound="COc1cccc2c1C(=O)c1c(O)c3c(c(O)c1C2=O)CC(O)(C(=O)CO)CC3OC1CC(N)C(O)C(C)O1 (configuration not stated) + CN1CCN(c2cc(C(=O)Nc3cc4cc(-c5cnn(C)c5)ccc4cn3)ccn2)CC1" label=TRUE
compound="CC(Nc1ccc2c(c1)OCCn1cc(N3C(=O)OCC3C(F)F)nc1-2)C(N)=O (configuration not stated) + CNC(=O)c1ccc(Nc2nc(OC3CCCC3)c3c(-c4ccc5nc(C)oc5c4)c[nH]c3n2)c(OC)c1" label=FALSE
compound="O=C(c1cc(Cc2n[nH]c(=O)c3ccccc23)ccc1F)N1CCN(C(=O)C2CC2)CC1 + CNC(=O)c1ccc(Nc2nc(OC3CCCC3)c3c(-c4ccc5nc(C)oc5c4)c[nH]c3n2)c(OC)c1" label=FALSE
compound="CC(CO)NC(=O)c1cc(-c2ccc(Cl)cc2)nn(-c2cnn(C)c2)c1=O (configuration not stated) + CN1CCN(c2cc(C(=O)Nc3cc4cc(-c5cnn(C)c5)ccc4cn3)ccn2)CC1" label=FALSE
compound="COC1C=CCC(C)C(C)S(=O)(=O)NC(=O)c2ccc3c(c2)N(CC2CCC21)CC1(CCCc2cc(Cl)ccc21)CO3 (configuration not stated) + CNC(=O)c1ccc(Nc2nc(OC3CCCC3)c3c(-c4ccc5nc(C)oc5c4)c[nH]c3n2)c(OC)c1" label=FALSE

All figures here come from PubChem BioAssay AID2060616.
